Reference source: patent US8912216B2

target: GST-ALK5 (Homo sapiens); assay: In-vitro (enzyme) kinase assay, 384-well flashplate (Example 36); type: biochemical; details: GST-ALK5, GST-SMAD2 substrate, 3 mM ATP, 30° C., 45 min; read-out: TβR activity (Example 36)
Sequence (P36897 34-503): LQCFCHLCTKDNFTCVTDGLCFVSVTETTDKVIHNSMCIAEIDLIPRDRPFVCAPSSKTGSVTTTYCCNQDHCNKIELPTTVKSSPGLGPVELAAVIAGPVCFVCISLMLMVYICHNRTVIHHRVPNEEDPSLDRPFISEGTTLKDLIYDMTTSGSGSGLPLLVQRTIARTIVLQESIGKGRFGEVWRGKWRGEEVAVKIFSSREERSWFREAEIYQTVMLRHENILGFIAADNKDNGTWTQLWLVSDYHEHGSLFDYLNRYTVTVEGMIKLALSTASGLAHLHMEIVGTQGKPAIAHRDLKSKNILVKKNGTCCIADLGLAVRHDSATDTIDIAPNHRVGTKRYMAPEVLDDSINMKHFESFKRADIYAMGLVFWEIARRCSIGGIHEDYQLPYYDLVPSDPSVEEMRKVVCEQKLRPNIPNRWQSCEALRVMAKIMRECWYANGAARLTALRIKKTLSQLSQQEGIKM

smiles repr	assayed target	IC50
Fc1ccc(Cl)cc1-c1cc(-c2cnc3ccccc3c2)c2cccnc2n1	GST-ALK5 (Homo sapiens)	1000 to 10000 nM
CN1CCC(n2cc(-c3cncc(-c4cc(-c5ccccc5)nc5ncccc45)c3)cn2)CC1	GST-ALK5 (Homo sapiens)	< 100 nM
N#Cc1ccnc(-c2cncc(-c3cc(-c4cc(Cl)ccc4F)nc4ncccc34)c2)c1	GST-ALK5 (Homo sapiens)	> 10000 nM
Cc1cccc(-c2cc(-c3cncc(-c4cnn(C5CCN(C)CC5)c4)c3)c3cccnc3n2)n1	GST-ALK5 (Homo sapiens)	< 100 nM
CC(C)(C)OC(=O)Nc1cc(-c2cncc(-c3cc(-c4cc(Cl)ccc4F)nc4ncccc34)c2)ccn1	GST-ALK5 (Homo sapiens)	100 to 1000 nM
Fc1ccc(F)c(-c2cc(-c3cncc(-c4cccc(OCCN5CCNCC5)c4)c3)c3cccnc3n2)c1	GST-ALK5 (Homo sapiens)	< 100 nM
NS(=O)(=O)c1cccc(-c2cncc(-c3cc(-c4cc(Cl)ccc4F)nc4ncccc34)c2)c1	GST-ALK5 (Homo sapiens)	< 100 nM
Fc1ccc(C(F)(F)F)cc1-c1cc(-c2cncc(-c3cnn(CCN4CCOCC4)c3)c2)c2cccnc2n1	GST-ALK5 (Homo sapiens)	< 100 nM
Cn1cc(-c2cncc(-c3cc(-c4cccc(Cl)c4)nc4ncccc34)c2)cn1	GST-ALK5 (Homo sapiens)	100 to 1000 nM
Fc1ccc(Cl)cc1-c1cc(-c2cncc3ccccc23)c2cccnc2n1	GST-ALK5 (Homo sapiens)	100 to 1000 nM
CN1CCN(c2ccc(-c3cnnc(-c4cc(-c5cc(Cl)ccc5F)nc5ncccc45)c3)cc2)CC1	GST-ALK5 (Homo sapiens)	1000 to 10000 nM
Nc1ccc(-c2cncc(-c3cc(-c4cc(Cl)ccc4F)nc4ncccc34)c2)cn1	GST-ALK5 (Homo sapiens)	< 100 nM
Nc1nccc(-c2cncc(-c3cc(-c4cc(Cl)ccc4F)nc4ncccc34)c2)n1	GST-ALK5 (Homo sapiens)	< 100 nM
Fc1ccc(Cl)cc1-c1cc(-c2cccnc2-c2ccccc2)c2cccnc2n1	GST-ALK5 (Homo sapiens)	> 10000 nM
Fc1ccc(Cl)cc1-c1cc(-c2cncc(-c3ccnc(N4CCNCC4)c3)c2)c2cccnc2n1	GST-ALK5 (Homo sapiens)	< 100 nM
Fc1ccc(Cl)cc1-c1cc(-c2cncc(-c3ccc4c(c3)CCNC4)c2)c2cccnc2n1	GST-ALK5 (Homo sapiens)	< 100 nM
CN1CCc2ccc(-c3cncc(-c4cc(-c5cc(Cl)ccc5F)nc5ncccc45)c3)cc2C1	GST-ALK5 (Homo sapiens)	< 100 nM
CN(C)CCc1ccc(-c2cncc(-c3cc(-c4cc(F)ccc4F)nc4ncccc34)c2)cc1	GST-ALK5 (Homo sapiens)	< 100 nM
Cn1cc(-c2cc(-c3cc(-c4cc(Cl)ccc4F)nc4ncccc34)c[n+]([O-])c2)cn1	GST-ALK5 (Homo sapiens)	1000 to 10000 nM
Fc1ccc(Cl)cc1-c1cc(-c2cncc(-c3ccc4c(c3)CCN4)c2)c2cccnc2n1	GST-ALK5 (Homo sapiens)	100 to 1000 nM
OCCn1cc(-c2cncc(-c3cc(-c4cc(C(F)(F)F)ccc4F)nc4ncccc34)c2)cn1	GST-ALK5 (Homo sapiens)	< 100 nM
CN1CCN(c2ccc(-c3cncc(-c4cc(-c5cc(Cl)ccc5F)nc5ncccc45)c3)nn2)CC1	GST-ALK5 (Homo sapiens)	< 100 nM
CC(=O)Nc1ccc(-c2cncc(-c3cc(-c4cc(Cl)ccc4F)nc4ncccc34)c2)nn1	GST-ALK5 (Homo sapiens)	100 to 1000 nM
CCN1CCC(c2ccc(-c3cncc(-c4cc(-c5cc(F)ccc5F)nc5ncccc45)c3)cc2)CC1	GST-ALK5 (Homo sapiens)	< 100 nM
